assaySystem: T1, soluble KDR extracellular domain (ECD) (Calbiochem) (human, UniProt P35968 20-764)
T1 construct: extracellular domain; Bought protein; also called KDR-ECD; VEGF Receptor 2 D1-7, Cat. #676490
T1 sequence (P35968 20-764): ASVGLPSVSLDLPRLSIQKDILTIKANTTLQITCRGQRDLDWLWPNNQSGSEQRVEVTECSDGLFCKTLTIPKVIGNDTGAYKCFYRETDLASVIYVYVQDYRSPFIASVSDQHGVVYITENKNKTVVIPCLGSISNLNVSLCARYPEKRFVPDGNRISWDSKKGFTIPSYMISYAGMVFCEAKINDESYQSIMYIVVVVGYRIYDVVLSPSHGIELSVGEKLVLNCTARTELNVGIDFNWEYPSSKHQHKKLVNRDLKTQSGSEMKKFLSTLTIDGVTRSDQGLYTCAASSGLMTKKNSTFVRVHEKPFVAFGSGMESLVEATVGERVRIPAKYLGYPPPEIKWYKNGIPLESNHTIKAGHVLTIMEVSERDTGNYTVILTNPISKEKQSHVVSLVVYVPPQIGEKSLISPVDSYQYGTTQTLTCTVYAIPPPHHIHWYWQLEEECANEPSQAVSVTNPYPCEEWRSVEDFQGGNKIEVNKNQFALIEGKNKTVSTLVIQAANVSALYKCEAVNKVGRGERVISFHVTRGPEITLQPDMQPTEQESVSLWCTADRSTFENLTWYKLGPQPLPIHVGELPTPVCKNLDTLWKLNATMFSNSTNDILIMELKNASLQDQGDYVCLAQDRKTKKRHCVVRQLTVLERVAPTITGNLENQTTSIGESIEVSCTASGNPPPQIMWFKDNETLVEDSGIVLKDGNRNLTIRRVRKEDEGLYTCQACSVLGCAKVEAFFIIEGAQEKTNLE
measurementNotes: High Antigen ELISA, KDR coat 500 ng/mL, supernatant 1:18,225
Assignment: determine reported ELISA reading for the given binders.
// no unit string in output, number only

The binder identified as 29F7 (antibody, V domains shown, Fully human mAb from XenoMouse hybridoma, tested as hybridoma supernatant) VH: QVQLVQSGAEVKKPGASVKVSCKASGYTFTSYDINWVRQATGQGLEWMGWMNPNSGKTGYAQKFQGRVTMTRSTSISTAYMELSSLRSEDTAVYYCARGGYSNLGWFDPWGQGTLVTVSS VL: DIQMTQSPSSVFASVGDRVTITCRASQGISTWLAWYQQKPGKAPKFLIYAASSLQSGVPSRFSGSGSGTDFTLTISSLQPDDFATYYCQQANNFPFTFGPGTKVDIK registered its ELISA reading at 0.22

ELISA reading in this record for 32F4 (antibody, V domains shown, Fully human mAb from XenoMouse hybridoma, tested as hybridoma supernatant) VH: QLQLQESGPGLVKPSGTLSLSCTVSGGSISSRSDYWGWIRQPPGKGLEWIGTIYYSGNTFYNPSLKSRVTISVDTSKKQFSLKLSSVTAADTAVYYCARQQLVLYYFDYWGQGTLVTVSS VL: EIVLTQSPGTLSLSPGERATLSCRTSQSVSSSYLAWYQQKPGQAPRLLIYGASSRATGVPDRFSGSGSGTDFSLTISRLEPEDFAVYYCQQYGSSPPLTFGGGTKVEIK : 0.5

Reported ELISA reading for 33D5 (antibody, V domains shown, Fully human mAb from XenoMouse hybridoma, tested as hybridoma supernatant) VH: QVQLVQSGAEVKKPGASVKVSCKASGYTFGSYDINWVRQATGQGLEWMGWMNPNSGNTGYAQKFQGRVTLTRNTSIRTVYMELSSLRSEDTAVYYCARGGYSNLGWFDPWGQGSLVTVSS VL: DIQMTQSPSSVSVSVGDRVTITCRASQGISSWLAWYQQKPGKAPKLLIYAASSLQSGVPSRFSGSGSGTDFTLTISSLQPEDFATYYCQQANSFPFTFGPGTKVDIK was 0.87

The recorded ELISA reading for 30D7 (antibody, V domains shown, Fully human mAb from XenoMouse hybridoma, tested as hybridoma supernatant) VH: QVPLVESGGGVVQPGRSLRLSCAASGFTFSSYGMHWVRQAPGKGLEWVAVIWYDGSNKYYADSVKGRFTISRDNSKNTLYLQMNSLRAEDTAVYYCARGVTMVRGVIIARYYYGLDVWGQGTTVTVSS VL: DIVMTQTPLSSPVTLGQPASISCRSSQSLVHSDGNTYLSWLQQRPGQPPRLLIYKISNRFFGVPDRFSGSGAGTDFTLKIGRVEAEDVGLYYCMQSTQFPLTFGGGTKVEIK is 0.82

So for 24C9 (antibody, V domains shown, Fully human mAb from XenoMouse hybridoma, tested as hybridoma supernatant) VH: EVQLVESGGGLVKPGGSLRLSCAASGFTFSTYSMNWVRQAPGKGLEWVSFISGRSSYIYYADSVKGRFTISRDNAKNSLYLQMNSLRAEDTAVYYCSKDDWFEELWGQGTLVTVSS VL: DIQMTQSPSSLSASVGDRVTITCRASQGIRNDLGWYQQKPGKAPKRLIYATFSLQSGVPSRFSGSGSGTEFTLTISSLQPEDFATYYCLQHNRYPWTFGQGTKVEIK , the logged ELISA reading turned out to be 0.11

get_value(item= 33C3 (antibody, V domains shown, Fully human mAb from XenoMouse hybridoma, tested as hybridoma supernatant) VH: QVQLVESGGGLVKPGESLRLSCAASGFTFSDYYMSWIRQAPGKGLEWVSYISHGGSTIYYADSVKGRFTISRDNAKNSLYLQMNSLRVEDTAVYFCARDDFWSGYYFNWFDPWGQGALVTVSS VL: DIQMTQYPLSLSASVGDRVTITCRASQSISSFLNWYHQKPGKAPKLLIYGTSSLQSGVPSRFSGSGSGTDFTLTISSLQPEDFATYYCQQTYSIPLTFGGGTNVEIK , readout=ELISA reading) returns 0.18

# ELISA reading of 33B1 (antibody, V domains shown, Fully human mAb from XenoMouse hybridoma, tested as hybridoma supernatant) VH: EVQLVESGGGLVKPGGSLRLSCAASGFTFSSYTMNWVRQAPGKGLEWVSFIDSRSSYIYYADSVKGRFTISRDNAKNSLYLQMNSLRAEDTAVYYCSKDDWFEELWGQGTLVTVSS VL: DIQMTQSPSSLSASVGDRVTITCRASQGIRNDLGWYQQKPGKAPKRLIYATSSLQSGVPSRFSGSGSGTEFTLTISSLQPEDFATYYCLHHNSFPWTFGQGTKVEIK = 0.2
